Quick reference: GI50 of the listed items.
- System: HCT-15
- assay_info: NCI tumour cell line growth inhibition, 48 h
Answer with a number only, understood to be in µM.

Recorded results for 2 compounds are shown here.
COc1ccc(-c2cc(-c3ccccc3)nc(N)n2)c(O)c1
6.03
O=C(NC(Nc1ccc(F)cc1)(C(F)(F)F)C(F)(F)F)C(C(F)(F)F)C(F)(F)F
2.13

Consider the additional compound presented here.
# input compound: CC1OC(OC2C[C@](O)(C(=O)CBr)Cc3c(O)c4c(c(O)c32)C(=O)c2ccccc2C4=O)C(F)C(O)C1O (stereo not given in full) ; wanted: its GI50
5.86

---

- Test system: ACHN
- assay_info: NCI tumour cell line growth inhibition, 48 h
Active and inactive are the calls of the source. Cut-off read from the data, not from the text of the source: active = GI50 up to about 1.1 µM and inactive = higher.
# valid calls are yes (1) (active), no (0) (inactive); nothing else

CCCc1c(O)nc(Nc2nc3ccccc3[nH]2)[nH]c1=O
no (0)
CCCN(CCC)C(=O)C(=O)c1c(N)[nH]n(-c2ccccc2)c1=O
no (0)
COC(=O)[C@@H]1C[C@H]([Se]c2ccccc2)CN1S(=O)(=O)c1ccc(C)cc1
no (0)

Identify the outcome logged in this assay for the compound shown: CC(C)C(Br)CCC1=CCC(Br)(Br)C1 (stereo not given)
no (0)

Check Cc1ccc(C)c(N2C/C(=N\NC(=O)CC#N)C(c3nc4ccccc4s3)C(=O)C2=O)c1 (stereo not given) too.
no (0)

And then "O=Cc1cc(O)c(O)c(/C=N/n2c3ccccc3c3ccccc32)c1" , what is it?
no (0)

Another compound to look at: CC(C)(C)C1CCC2c3c([nH]c4ccccc34)C3C(=O)N(c4ccccc4Cl)C(=O)C3C2C1 (stereo not given)
no (0)

Cool, now "NNC(=O)CC(=O)Nc1cccc(Cl)c1"
no (0)

And O=C([O-])Cc1ccccc1.[Na+] [SODIUM PHENYLACETATE] ?
no (0)

Entry CC[C@H]1CN2CCc3cc(OC)c(OC)cc3[C@@H]2C[C@@H]1C[C@H]1NCCc2c1[nH]c1ccc(O)cc21 [TUBULOSINE] please
yes (1)

---

- Tested on: SNB-75
- assay_info: NCI tumour cell line growth inhibition, 48 h
Active and inactive are the calls of the source. No stated cut-off is given here; in the data, active = GI50 up to about 1.1 µM and inactive = higher.
measured_metric: GI50

Example compounds with recorded GI50:
CCN(CC)CCCN1CCc2c([nH]c3ccccc23)C1c1cccnc1 (stereo unspecified)
> 100 µM (inactive)
COc1ccc(OC2OC(CO)C(OCc3ccccc3)C(OCc3ccccc3)C2OCc2ccccc2)cc1 (stereo unspecified)
11.3 µM (inactive)

Using the record for N=S(c1ccccc1)c1ccccc1[N+](=O)[O-] (stereo unspecified) , report its GI50.
25.8 µM (inactive)

Next up: "NNC(=O)CSc1nc2ccccc2c(=O)n1N"
13.5 µM (inactive)

Same thing, different compound: "COc1ccc([C@@]2(O)c3c(ccc(O)c3OC)[C@H]2OC)c(OC)c1"
39.6 µM (inactive)

Same lookup for "CCOC(=O)/C=C(\C(=O)OCC)n1ccc(=O)[nH]c1=O" , please.
17.1 µM (inactive)

---

- Tested on: SK-MEL-2
- assay_info: NCI tumour cell line growth inhibition, 48 h
The source made the active and inactive calls. No stated cut-off is given here; in the data, active = GI50 up to about 1.1 µM and inactive = higher.
A collection of molecules and their measured GI50

Sample "O=C(NC/C=C/CO)c1ccccc1" — what was its GI50?
> 100 µM (inactive)

For "CC(=O)O[C@H]1[C@H](O[C@H]2CC[C@]34C[C@]35CC[C@]3(C)[C@@H]([C@@]6(C)CC[C@@H](C(C)(C)O)O6)[C@@H](O)C[C@@]3(C)[C@@H]5C[C@H](O[C@@H]3O[C@H](CO)[C@@H](O)[C@H](O)[C@H]3O)[C@H]4C2(C)C)OC[C@@H](O)[C@@H]1O" then?
> 100 µM (inactive)

// query: "Cc1cc(C)nc(NS(=O)(=O)c2ccc(Nc3c4ccccc4nc4c(C(=O)N5CCN(CCO)CC5)ccc(Cl)c34)cc2)n1"
> 100 µM (inactive)

Next: "O=C(O)c1c(-c2c3ccc(=O)cc-3oc3cc(O)ccc23)cc2ccccc2c1-c1ccccc1"
> 100 µM (inactive)

What about this molecule? COc1ccc2c3c1OC1C34CCN(C)C(C2)C4=CC(I)C1(OC)OC (stereo not drawn)
15.6 µM (inactive)

Note, next up: "COC1=CC(=O)c2nc3ccccc3c3ccnc1c23"
5.64 µM (inactive)

Record: "ClCCN(CC#CCCCC#CCN(CCCl)CCCl)CCCl"
13 µM (inactive)

Repeat for the following molecule: "CN/C=C(\C(=O)c1ccc(OC)c(OC)c1)c1ccc(OC)cc1"
15.7 µM (inactive)

---

# GI50 listing for each entry below
- System: NCI/ADR-RES
- assay_info: NCI tumour cell line growth inhibition, 48 h
The source made the active and inactive calls. Cut-off read from the data, not from the text of the source: active = GI50 up to about 1.1 µM and inactive = higher.

Use these answered entries as a reference point.
CCOC(=O)c1c(NS(=O)(=O)c2ccc(C)cc2)sc2c1CCCC2
27 µM (inactive)
CC(C)=CCc1c2c(c3occ(-c4ccc(O)c(O)c4)c(=O)c3c1O)C=CC(C)(C)O2
2.18 µM (inactive)
NC1=NC(c2ccc(Cl)cc2)N(c2ccc(S(N)(=O)=O)cc2)C(N)=N1 (stereo not given)
> 100 µM (inactive)
CN(C)CCNC(=O)c1cccc2c(NC(CS)C(=O)O)c3ccccc3nc12 (stereo not given)
9.82 µM (inactive)
COc1nc(=O)n(C2CC(F)C(CO)O2)cc1C (stereo not given)
> 100 µM (inactive)

Any idea what its GI50 is? The molecule is "O=C(O)COc1c(Cl)cc(Cl)c(C(c2c(Cl)cc(Cl)c(OCC(=O)O)c2Cl)C(Cl)(Cl)Cl)c1Cl"
34 µM (inactive)

Item: COc1ccc(OC2OC(CO)C(OCc3ccccc3)C(OCc3ccccc3)C2OCc2ccccc2)cc1 (stereo not given)
61.9 µM (inactive)

Another molecule to look at: "C(=N\c1cnc2ccccc2c1)/c1ccc2ccccc2n1"
> 100 µM (inactive)

For Cc1c2cccc(Sc3ccccc3)c2c2c3c(cccc13)[S+](c1ccccc1)C2 (stereo not given) then?
28.6 µM (inactive)

Also COc1ccc(N2C(=O)C3c4[nH]c5ccc([N+](=O)[O-])cc5c4C4CCC(C(C)(C)C)CC4C3C2=O)cc1 (stereo not given) , if possible.
9.62 µM (inactive)

---

Recorded GI50, one value per entry.
- System: 786-0
- assay_info: NCI tumour cell line growth inhibition, 48 h
Activity calls are given as the source filed them. No stated cut-off is given here; in the data, active = GI50 up to about 1.1 µM and inactive = higher.

Recorded results for 5 compounds are shown here.
NNC1=NC(=O)NC(=O)C1
> 100 µM (inactive)
COc1ccc(C2NC3=C(CCCC3)C3(C#N)C(=O)N=C(N)C23C#N)cc1 (stereo unspecified)
> 100 µM (inactive)
CCCCCC1CC=CC(=O)O1 (stereo unspecified)
3.85 µM (inactive)
COC1(OC)C2(Cl)C(Cl)=C(Cl)C1(Cl)C1c3ccc(C(C)=O)c4cccc(c34)C12 (stereo unspecified)
45.7 µM (inactive)
CCOC(=O)/C=C/[C@@H](CC)O[Si](C(C)C)(C(C)C)C(C)C
> 100 µM (inactive)

# query: GI50 of entry "CC(C)NCCCNc1c2ccccc2nc2cccc([N+](=O)[O-])c12"
0.00445 µM (active)

---

GI50 by entry:
- System: NCI-H226
- assay_info: NCI tumour cell line growth inhibition, 48 h
The source made the active and inactive calls. No stated cut-off is given here; in the data, active = GI50 up to about 1.1 µM and inactive = higher.

Worked examples follow.
Cc1c2cccc(Sc3ccccc3)c2c2c3c(cccc13)[S+](c1ccccc1)C2 (stereo not given)
2.33 µM (inactive)
Cc1ccc(NC(=O)CC(=O)n2nc(C)c(/N=N/c3ccc(S(=O)(=O)CCOS(=O)(=O)O)cc3)c2C)cc1
> 100 µM (inactive)
COC(=O)[C@@H]1C[C@H]([Se]c2ccccc2)CN1S(=O)(=O)c1ccc(C)cc1
> 100 µM (inactive)
COc1ccc(NC(=O)C/C(C)=N\N=C(N)N)c([N+](=O)[O-])c1
> 100 µM (inactive)
CC(SC(=S)N1CCOCC1)C(=O)Nc1nnc(-c2ccccc2)o1 (stereo not given)
> 100 µM (inactive)

Entry under review: "CC(=O)Oc1ccccc1" . Reported GI50?
> 100 µM (inactive)

Also check "O=C(c1ccccc1)N(CCCCNC(=O)C(F)(F)F)CCCNC(=O)C(F)(F)F"
> 100 µM (inactive)

---

- Test system: MCF7
- assay_info: NCI tumour cell line growth inhibition, 48 h
Active and inactive are the calls of the source. Rule as the data show it: active = GI50 up to about 1.1 µM and inactive = higher. Where a SMILES comes first, the peptide text is derived from it.
# GI50 listing for each entry below

Sample records with GI50:
CC(=O)OCC1OC(OC2CC3C(C)(C)C(=O)CC[C@]3(C)C3CC[C@]45C[C@]4(CCC5[C@@H](C)CC(O)C(O)C(C)(C)O)[C@]23C)C(O)C(O)C1O (some centres undefined)
4.78 µM (inactive)
CCCCCCCCCCCCCCCCCCOCC(O)COP(=O)(O)OCC1OC(n2cc(F)c(=O)[nH]c2=O)CC1O (centres undefined)
0.492 µM (active)
CC1=C(N2CC2)C(=O)C(CO)=C(N2CC2)C1=O
0.0106 µM (active)
ClCCN(CC#CCCCC#CCN(CCCl)CCCl)CCCl
8.75 µM (inactive)
O=c1oc2ccc(Cl)cc2cc1C1=CSC2=NCCN12
19.6 µM (inactive)

So what GI50 did COC1(OC)C2(Cl)C(Cl)=C(Cl)C1(Cl)C1c3ccc(C(C)=O)c4cccc(c34)C12 (centres undefined) get with MCF7?
5.5 µM (inactive)

Same lookup for "CNc1nc2c(C)ccc3nc(N(C)C)nc-3c2n1C" , please.
> 10 µM (inactive)

# iterate: CC1NC(=O)CNC(=O)CNC(=O)C(Cc2ccc(O)cc2)NC(=O)C(C(C)C)NC(=O)C(C)NC1=O (centres undefined) (cyclo(GGAAVY); configuration not given here)
> 100 µM (inactive)

Let us now turn to "Cc1ccc2nc(CN(CCO)CCO)cc(=O)n2c1"
> 100 µM (inactive)
